# Test system: Rabbit Skeletal myofibrils (rabbit psoas muscle)
# testMethodNotes: Myofibril ATPase assay (PK/LDH NADH-coupled), skeletal myofibrils
# Assay type: biochemical
# assayConditions: Table 8
Bucketed by reported Rabbit Psoas IC25, buckets being Low: < 2 µM; Medium: ≥ 2 µM and < 70 µM; High: ≥ 70 µM

{"compound": "Cc1nc(C#N)ncc1[C@H](C)NC(=O)CN1Cc2c(ccc(F)c2F)NC1=O", "group": "Medium"}
{"compound": "C[C@H](NC(=O)CN1Cc2cc(F)ccc2NC1=O)c1ncccn1", "group": "High"}
{"compound": "C[C@H](C(=O)N[C@H](C)c1ncc(C#N)cc1F)N1Cc2c(ccc(F)c2F)NC1=O", "group": "Low"}
{"compound": "C[C@H](NC(=O)C1(N2Cc3c(ccc(F)c3F)NC2=O)CC1)c1ncc(C#N)cc1F", "group": "Low"}
{"compound": "C[C@@H](NC(=O)CN1Cc2c(ccc(F)c2F)NC1=O)c1ccc(C#N)nn1", "group": "Low"}
{"compound": "C[C@@H](NC(=O)CN1Cc2c(ccc(F)c2F)NC1=O)c1ccc2cnccc2n1", "group": "High"}
{"compound": "O=C(CN1Cc2c(ccc(F)c2F)NC1=O)N[C@@H]1COCc2cc(F)ccc21", "group": "Low"}
{"compound": "C[C@@H](NC(=O)CN1Cc2cc(F)ccc2NC1=O)c1ccc(C#N)cn1", "group": "Medium"}
{"compound": "O=C(CN1Cc2c(ccc(F)c2F)NC1=O)N[C@@H](CO)c1ncc(F)cc1F", "group": "Low"}
{"compound": "Cc1nc([C@@H](C)NC(=O)CN2Cc3c(ccc(F)c3F)NC2=O)ncc1C#N (single isomer, unassigned)", "group": "Medium"}
{"compound": "C[C@@H](NC(=O)CN1C(=O)Nc2ccccc2[C@@H]1C)c1ncc(F)cc1F", "group": "High"}
{"compound": "C[C@@H](NC(=O)CN1Cc2c(ccc(F)c2F)NC1=O)c1cc2c(cn1)OCCN2C", "group": "Medium"}
{"compound": "[2H]C1([2H])c2c(ccc(F)c2F)NC(=O)N1CC(=O)N[C@@H](C)c1ncc(C#N)cc1F", "group": "Low"}
{"compound": "C[C@@H](NC(=O)CN1Cc2cc(CN(C)C)ccc2NC1=O)c1ncc(C#N)cc1F", "group": "High"}
{"compound": "CC(=O)N1CC2(C1)c1cc(F)ccc1NC(=O)N2CC(=O)N[C@H](C)c1ncc(C#N)cc1F", "group": "High"}
